Data origin: the supplement of paper PMC10646978

Form field: IRF reporter (one value per entry).
system: RAW-Dual (murine macrophage reporter line); assay: IRF reporter (Lucia luciferase) activity fold change vs agonist alone; higher = enhanced IRF activity; conditions: modulator concentration 10 µM; agonist: LPS 0.1 ug/mL

[
  {
    "compound": "Cc1ccc(C(=O)c2ccc(CC(=O)O)n2C)cc1",
    "IRF reporter": 0.993
  },
  {
    "compound": "CCC(Oc1ccccc1)C(=O)Nc1cc([N+](=O)[O-])ccc1C (stereo unspecified)",
    "IRF reporter": 0.997
  },
  {
    "compound": "Cc1c(C#N)sc2nc(-c3ccccc3)nc(N=CN(C)C)c12",
    "IRF reporter": 0.971
  },
  {
    "compound": "Cc1cc(CCNC(=O)c2nc3ccccc3s2)nn1C",
    "IRF reporter": 1.02
  },
  {
    "compound": "Cl.Cl.OCCN1CCN(CC/C=C2/c3ccccc3Sc3ccc(C(F)(F)F)cc32)CC1",
    "IRF reporter": 1.13
  },
  {
    "compound": "CN1CCN(c2nc(C3=C(c4c[nH]c5ccccc45)C(=O)NC3=O)c3ccccc3n2)CC1",
    "IRF reporter": 1.14
  },
  {
    "compound": "CC(N)C12CC3CC(CC(C3)C1)C2 (stereo unspecified)",
    "IRF reporter": 1.12
  },
  {
    "compound": "Cc1ccc(C(=O)NC(=S)Nc2nc(-c3cccc([N+](=O)[O-])c3)cs2)cc1C",
    "IRF reporter": 1.08
  },
  {
    "compound": "CCOc1ccccc1NC(=O)NCCc1csc(-n2nc(C)cc2C)n1",
    "IRF reporter": 0.983
  },
  {
    "compound": "CCN(CC)Cc1ccc(Nc2ccnc3cc(Cl)ccc23)cc1O.Cl.Cl",
    "IRF reporter": 1.09
  },
  {
    "compound": "Cc1cc(NC2CCCC2)nc2ccccc12",
    "IRF reporter": 1.88
  }
]

----------
test system: RAW-Dual (murine macrophage reporter line); assay: NF-kB reporter (SEAP) activity fold change vs agonist alone; higher = enhanced NF-kB activity; details: modulator concentration 10 µM; agonist: MPLA […]
readout kind: NF-kB reporter

[
  {
    "compound": "CCOC(=O)[C@H](CCc1ccccc1)N[C@H]1CCc2ccccc2N(CC(=O)O)C1=O.Cl",
    "target": "RAW-Dual (murine macrophage reporter line)",
    "obs value": 0.987
  },
  {
    "compound": "CNC(=O)c1cc(Oc2ccc(NC(=O)Nc3ccc(Cl)c(C(F)(F)F)c3)c(F)c2)ccn1.O",
    "target": "RAW-Dual (murine macrophage reporter line)",
    "obs value": 0.42
  },
  {
    "compound": "COC(CNS(=O)(=O)c1ccccc1Cl)c1cccc(F)c1 (stereo unspecified)",
    "target": "RAW-Dual (murine macrophage reporter line)",
    "obs value": 1.08
  },
  {
    "compound": "Cc1ccc2[nH]c3nc(NN)nnc3c2c1",
    "target": "RAW-Dual (murine macrophage reporter line)",
    "obs value": 0.967
  },
  {
    "compound": "CCOc1ccc(CN(CCc2ccc3c(c2)OCO3)Cc2cccc3ccccc23)cc1",
    "target": "RAW-Dual (murine macrophage reporter line)",
    "obs value": 1.07
  },
  {
    "compound": "O=C(c1ccc(Cl)cc1)c1ccc(N2CCCCC2)c([N+](=O)[O-])c1",
    "target": "RAW-Dual (murine macrophage reporter line)",
    "obs value": 1.01
  },
  {
    "compound": "CN(C)c1nc(CNC(=O)c2cnn(-c3ccccc3)n2)nc(N2CCCC2)n1",
    "target": "RAW-Dual (murine macrophage reporter line)",
    "obs value": 1.02
  },
  {
    "compound": "Oc1c(Cl)cc(Cl)cc1Sc1cc(Cl)cc(Cl)c1O",
    "target": "RAW-Dual (murine macrophage reporter line)",
    "obs value": 3.21
  },
  {
    "compound": "CCCNS(=O)(=O)Nc1ncnc(OCCOc2ncc(Br)cn2)c1-c1ccc(Br)cc1",
    "target": "RAW-Dual (murine macrophage reporter line)",
    "obs value": 1.16
  },
  {
    "compound": "COc1cccc2c1C(=O)c1c(O)c3c(c(O)c1C2=O)C[C@@](O)(C(C)=O)C[C@@H]3O[C@H]1C[C@H](N)[C@H](O)[C@H](C)O1.Cl",
    "target": "RAW-Dual (murine macrophage reporter line)",
    "obs value": 0.0998
  },
  {
    "compound": "O=C(O)CCCNCP(=O)(O)CCc1ccccc1",
    "target": "RAW-Dual (murine macrophage reporter line)",
    "obs value": 0.881
  }
]
